Reported melting point values are given for each entry in this list.
quantity_measured: melting point

[[record]]
molecule = "O=C(Nc1ccc(-n2nc(C(F)(F)F)cc2C(F)(F)F)cc1)c1ccccc1C(=O)c1ccccc1"
readout_value = "204 to 205 °C"

[[record]]
molecule = "O=C(Nc1ccncc1)c1ccc(-n2nc(C(F)(F)F)cc2C(F)(F)F)cc1"
readout_value = "234 to 235 °C"

[[record]]
molecule = "O=C(Nc1ccc(-n2nc(C(F)(F)F)cc2C(F)(F)F)cc1)C1CCCN1 (centres unmarked)"
readout_value = "82 to 84 °C"

[[record]]
molecule = "Cc1ccc(C(=O)Nc2ccc(-n3nc(C(F)(F)F)cc3C(F)(F)F)cc2)c(Cl)n1"
readout_value = "155 to 156 °C"

[[record]]
molecule = "O=C(Nc1ccc(-n2nc(C(F)(F)F)cc2C(F)(F)F)cc1)c1cc(F)c(F)cc1Cl"
readout_value = "149 to 152 °C"

[[record]]
molecule = "O=C(Nc1ccc(-n2nc(C(F)(F)F)cc2C(F)(F)F)cc1)c1c(F)cccc1C(F)(F)F"
readout_value = "175 to 176 °C"

[[record]]
molecule = "COc1cccc2cc(C(=O)Nc3ccc(-n4nc(C(F)(F)F)cc4C(F)(F)F)cc3)oc12"
readout_value = "109 to 110 °C"

[[record]]
molecule = "O=C(Nc1ccc(-n2nc(C(F)(F)F)cc2C(F)(F)F)cc1)c1ccc(F)c([N+](=O)[O-])c1"
readout_value = "186 to 187 °C"

[[record]]
molecule = "Nc1cccc(C(=O)Nc2ccc(-n3nc(C(F)(F)F)cc3C(F)(F)F)cc2)c1"
readout_value = "203 to 204 °C"

[[record]]
molecule = "Cc1noc(C)c1C(=O)Nc1ccc(-n2nc(C(F)(F)F)cc2C(F)(F)F)c(Cl)c1"
readout_value = "64 to 65 °C"

[[record]]
molecule = "O=C(Nc1ccc(-n2nc(C(F)(F)F)cc2C(F)(F)F)cc1)c1ccc(F)c(F)c1F"
readout_value = "122 to 124 °C"

[[record]]
molecule = "CC(C)(C)OC(=O)N1CSCC1C(=O)Nc1ccc(-n2nc(C(F)(F)F)cc2C(F)(F)F)cc1 (centres unmarked)"
readout_value = "82 to 84 °C"

[[record]]
molecule = "COc1ccc(C(=O)Nc2ccc(-n3nc(C(F)(F)F)cc3C(F)(F)F)cc2)cc1Br"
readout_value = "197 to 198 °C"

[[record]]
molecule = "CCCCCCCNC(=O)Nc1ccc(-n2nc(C(F)(F)F)cc2C(F)(F)F)cc1"
readout_value = "129 to 130 °C"

[[record]]
molecule = "O=C(Nc1ccc(-n2nc(C(F)(F)F)cc2C(F)(F)F)cc1)c1ccccc1I"
readout_value = "180 to 182 °C"

[[record]]
molecule = "O=C(Nc1ccc(-n2nc(C(F)(F)F)cc2C(F)(F)F)c(C(F)(F)F)c1)c1ccc(Cl)cc1"
readout_value = "65 to 67 °C"

[[record]]
molecule = "O=C(Nc1ccc(-n2nc(C(F)(F)F)cc2C(F)(F)F)cc1)c1cccc(F)c1F"
readout_value = "147 to 149 °C"

[[record]]
molecule = "O=C(Nc1ccc(-n2nc(C(F)(F)F)cc2C(F)(F)F)cc1)c1ccc(F)c(F)c1"
readout_value = "183 to 185 °C"

[[record]]
molecule = "Cc1noc(C)c1C(=O)Nc1ccc(-n2ccc(C(F)(F)F)n2)cc1"
readout_value = "177 to 178 °C"

[[record]]
molecule = "NC(=O)c1cccc(C(=O)Nc2ccc(-n3nc(C(F)(F)F)cc3C(F)(F)F)cc2)c1"
readout_value = "244 to 245 °C"

[[record]]
molecule = "COc1cccc(O)c1C(=O)Nc1ccc(-n2nc(C(F)(F)F)cc2C(F)(F)F)cc1"
readout_value = "114 to 116 °C"

[[record]]
molecule = "O=C(Nc1ccc(-n2nc(C(F)(F)F)cc2Cl)cc1)c1ccncc1F"
readout_value = "128 to 129 °C"

[[record]]
molecule = "O=C(Nc1ccc(-n2nc(C(F)(F)F)cc2C(F)(F)F)cc1)c1ccc(Oc2cc(Cl)cc(Cl)c2)o1"
readout_value = "152 to 153 °C"

[[record]]
molecule = "CSCCC(=O)Nc1ccc(-n2nc(C(F)(F)F)cc2C(F)(F)F)cc1"
readout_value = "122 to 123 °C"

[[record]]
molecule = "O=C(Nc1cccc(-n2nc(C(F)(F)F)cc2C(F)(F)F)c1)c1ccc(F)cc1"
readout_value = "150 to 152 °C"

[[record]]
molecule = "Cc1ccnn1-c1ccc(NC(=O)c2ccc(Cl)cc2)cc1"
readout_value = "189 to 191 °C"

[[record]]
molecule = "O=C(Nc1ccc(-n2nc(C(F)(F)F)cc2C(F)(F)F)cc1)c1cccc(Cl)c1F"
readout_value = "113 to 116 °C"

[[record]]
molecule = "CC(C(=O)Nc1ccc(-n2nc(C(F)(F)F)cc2C(F)(F)F)cc1)c1ccc(C(=O)c2cccs2)cc1 (centres unmarked) [Example 177]"
readout_value = "< 80 °C"

[[record]]
molecule = "Cc1nnsc1C(=O)Nc1ccc(-n2nc(C(F)(F)F)cc2C#N)cc1"
readout_value = "193 to 195 °C"

[[record]]
molecule = "O=C(Nc1ccc(-n2nc(C(F)(F)F)cc2C(F)(F)F)cc1)c1ccc(Cl)cc1F"
readout_value = "156 to 158 °C"

[[record]]
molecule = "O=C(Nc1ccc(-n2nc(C(F)(F)F)cc2C(F)(F)F)cc1)c1c(F)cc(Cl)cc1Cl"
readout_value = "185 to 188 °C"

[[record]]
molecule = "COc1cc(-n2nc(C(F)(F)F)cc2C(F)(F)F)ccc1NC(=O)c1snnc1C"
readout_value = "119 to 121 °C"


----------
Test system: Human peripheral blood mononuclear cells
Assay: Human Concanavalin-A Proliferation Assay (Con HU Assay)
Format: cell-based
Conditions: Homo sapiens, PBMC, concanavalin-A stimulated human PBMC, tritiated thymidine
pIC50: −log10 of the molar value.
quantity_measured: pIC50

[[record]]
molecule = "Cc1ccc(C(=O)Nc2ccc(-n3nc(C(F)(F)F)cc3C(F)(F)F)cc2)c(Cl)n1"
readout_value = 6.53

[[record]]
molecule = "O=C(Nc1ccc(-n2nc(C(F)(F)F)cc2C(F)(F)F)cc1)c1ccc(F)c(F)c1"
readout_value = 6.87

[[record]]
molecule = "O=C(Nc1ccc(-n2nc(C(F)(F)F)cc2C(F)(F)F)cc1)c1cccc([N+](=O)[O-])c1Br"
readout_value = 6.71

[[record]]
molecule = "NC(=O)c1ccc(C(=O)Nc2ccc(-n3nc(C(F)(F)F)cc3C(F)(F)F)cc2)cc1"
readout_value = 6.50

[[record]]
molecule = "O=C(Nc1ccc(-n2nc(C(F)(F)F)cc2C(F)(F)F)cc1)c1cccc(F)c1"
readout_value = 6.57

[[record]]
molecule = "O=C(Nc1ccc(-n2nc(C(F)(F)F)cc2C(F)(F)F)cc1)c1ccc(C(F)(F)F)cc1C(F)(F)F"
readout_value = 6.27

[[record]]
molecule = "O=C(Nc1ccc(-n2nc(C(F)(F)F)cc2C(F)(F)F)cc1)c1cc(F)c(F)c(F)c1"
readout_value = 6.59

[[record]]
molecule = "COc1ccc(C(=O)Nc2ccc(-n3nc(C(F)(F)F)cc3C(F)(F)F)cc2)cc1"
readout_value = 6.26

[[record]]
molecule = "COc1cc(C(F)(F)F)nn1-c1ccc(NC(=O)c2ccccc2F)cc1"
readout_value = 7.18

[[record]]
molecule = "N#Cc1cc(C(F)(F)F)nn1-c1ccc(NC(=O)c2cc(F)cc(F)c2F)cc1"
readout_value = 7.10

[[record]]
molecule = "O=C(Nc1ccc(-n2nc(C(F)(F)F)cc2C(F)(F)F)cc1)c1cccc(F)c1F"
readout_value = 7.48

[[record]]
molecule = "FC(F)(F)c1cc(C(F)(F)F)n(-c2ccc(/C=C/c3ccccc3Cl)cc2)n1"
readout_value = 5.42

[[record]]
molecule = "N#Cc1ccc(C(=O)Nc2ccc(-n3nc(C(F)(F)F)cc3C(F)(F)F)cc2)cc1"
readout_value = 6.60

[[record]]
molecule = "CCCC(=O)Nc1ccc(-n2nc(C(F)(F)F)cc2C(F)(F)F)cc1"
readout_value = 6.25

[[record]]
molecule = "CC1CCCCC1C(=O)Nc1ccc(-n2nc(C(F)(F)F)cc2C(F)(F)F)cc1 (stereo not shown)"
readout_value = 6.52

[[record]]
molecule = "O=C(Nc1ccc(-n2nc(C(F)(F)F)cc2C(F)(F)F)cc1)c1ccc(F)cc1F"
readout_value = 6.68


----------
System: Human peripheral blood mononuclear cells
Assay: Human Concanavalin-A Proliferation Assay (Con HU Assay)
Format: cell-based
Conditions: Homo sapiens, PBMC, concanavalin-A stimulated human PBMC, tritiated thymidine
# note: boundary value 200 nM maps to NO; IC50 below it maps to YES

[[record]]
compound = "O=C(Nc1ccc(-n2nc(C(F)(F)F)cc2C(F)(F)F)cc1)C1CCOC1 (centres unmarked)"
category_label = "NO"

[[record]]
compound = "O=C(Nc1ccc(-n2nc(C(F)(F)F)cc2-c2cccs2)cc1)c1ccncc1F"
category_label = "NO"

[[record]]
compound = "Cc1cc(C)c(C(=O)Nc2ccc(-n3nc(C(F)(F)F)cc3C(F)(F)F)cc2)c(C)c1"
category_label = "NO"

[[record]]
compound = "Cn1ncc(C(=O)Nc2ccc(-n3nc(C(F)(F)F)cc3C(F)(F)F)cc2)c1[N+](=O)[O-]"
category_label = "YES"

[[record]]
compound = "O=C(Nc1ccc(-n2nc(C(F)(F)F)cc2C(F)(F)F)cc1)c1cc(Br)c(Br)s1"
category_label = "NO"

[[record]]
compound = "Cc1nnsc1C(=O)Nc1ccc(-n2nc(-c3nccs3)cc2C(F)(F)F)cc1"
category_label = "NO"

[[record]]
compound = "Nc1ccccc1C(=O)Nc1ccc(-n2nc(C(F)(F)F)cc2C(F)(F)F)cc1"
category_label = "NO"

[[record]]
compound = "O=C(Nc1ccc(-n2nc(C(F)(F)F)cc2C(F)(F)F)cc1)c1cc(Cl)ccc1Cl"
category_label = "YES"

